Below, each entry is listed alongside its reported Papp A→B.
- assay.remarks: Apparent permeability from apical to basal side of MDCK cells
- Type: ADME, cell-based, Canis lupus familiaris
- protocol.conditions: dog
measure.name: Papp A→B (×10⁻⁶ cm/s)

>>> print(df.to_string())
                                   compound  measure_name  numeric_result
0  CN(C(=O)c1cc2c(s1)-c1ccc(C(N)=O)cc1OCC2)c1ccccc1Cl      Papp A→B             2.1
1  CC(C)n1ncnc1-c1cc2c(s1)-c1ccc(C(N)=O)cc1OCC2      Papp A→B              20
2  NC(=O)c1ccc2c(c1)OCCc1cc(-c3ncnn3-c3ccc(F)cc3F)sc1-2      Papp A→B              13
